tested on: 953936-095-R-J2-PDC spheroids with HUVEC/MSC, viability; assay: Anticancer human tumor 953936-095-R-J2-PDC patient-derived cervical squamous cell carcinoma cell line growth inhibition [PI3K]; conditions: second compound 3.16 µM; first compound 0.001 µM; stronger effect = lower value;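 note: spheroids exposed to compounds for seven days before read-out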
quantity.kind: viability, T/C

Take a look at these entries with their results.
# compound, viability, T/C
rows = [
    ("Cn1ncnc1[C@H]1c2n[nH]c(=O)c3cc(F)cc(c23)N[C@@H]1c1ccc(F)cc1 + CC(Nc1ncnc2nc[nH]c12)c1cc2cccc(Cl)c2c(=O)n1-c1ccccc1", "78.5%"),
    ("CC(=O)c1c(C)c2cnc(Nc3ccc(N4CCNCC4)cn3)nc2n(C2CCCC2)c1=O + CC(Nc1ncnc2nc[nH]c12)c1cc2cccc(Cl)c2c(=O)n1-c1ccccc1", "74.4%"),
]

Tell us which viability, T/C value is on record for CC(C)n1nc(-c2ccc3oc(N)nc3c2)c2c(N)ncnc21 + CC(Nc1ncnc2nc[nH]c12)c1cc2cccc(Cl)c2c(=O)n1-c1ccccc1
70.5%

Tell us which viability, T/C value is on record for Cn1ncnc1[C@H]1c2n[nH]c(=O)c3cc(F)cc(c23)N[C@@H]1c1ccc(F)cc1 + Cc1nc(NC(=O)N2CCCC2C(N)=O)sc1-c1ccnc(C(C)(C)C(F)(F)F)c1
26.2%

Tell us which viability, T/C value is on record for CC(=O)c1c(C)c2cnc(Nc3ccc(N4CCNCC4)cn3)nc2n(C2CCCC2)c1=O + Cc1nc(NC(=O)N2CCCC2C(N)=O)sc1-c1ccnc(C(C)(C)C(F)(F)F)c1
25.3%

Tell us which viability, T/C value is on record for CC(C)n1nc(-c2ccc3oc(N)nc3c2)c2c(N)ncnc21 + Cc1nc(NC(=O)N2CCCC2C(N)=O)sc1-c1ccnc(C(C)(C)C(F)(F)F)c1
24.1%
